Target: T1, recombinant human IL-23 (human, UniProt Q9NPF7 20-189; P29460 23-328)
T1 construct: Heterodimer of p19 and p40; also called hIL-23; interleukin-23; not shown: single C-terminal 6xHis tag
T1 sequence 1: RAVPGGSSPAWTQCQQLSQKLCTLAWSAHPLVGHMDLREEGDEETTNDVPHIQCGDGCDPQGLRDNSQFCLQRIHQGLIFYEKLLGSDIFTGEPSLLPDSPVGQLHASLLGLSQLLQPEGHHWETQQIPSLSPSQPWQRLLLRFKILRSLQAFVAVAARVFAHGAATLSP
T1 sequence 2: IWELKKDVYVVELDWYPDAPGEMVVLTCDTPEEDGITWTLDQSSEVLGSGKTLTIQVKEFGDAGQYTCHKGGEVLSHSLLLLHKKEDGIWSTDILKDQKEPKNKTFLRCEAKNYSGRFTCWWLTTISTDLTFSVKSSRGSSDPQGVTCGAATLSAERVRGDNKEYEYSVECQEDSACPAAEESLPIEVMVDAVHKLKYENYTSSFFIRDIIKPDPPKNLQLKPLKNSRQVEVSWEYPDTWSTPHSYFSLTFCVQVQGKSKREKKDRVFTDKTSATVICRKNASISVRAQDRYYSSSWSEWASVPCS
Test: IL-23-IL-23R neutralisation ELISA
REPORTED_ENDPOINT: EC50 (nM)

BINDER | EXPERIMENTAL_RESULT
ID-L243T (VHH, Relative to ID-L253T: D1E, S19R, P87S, V92R) VHH: EVQLVESGGGQVQPGGSLRLSCESSVSIWSFKVMGWFRQVPGKQRELVATITTGGSPDYSDSVKGRFTISRDYDKRTLYLQMNSLKSEDTARYYCAGRLWAHITSSGHDVWGQGTQVTVSS | 0.27
ID-L239T (VHH, Relative to ID-L253T: D1E, S19R, R45L, V92R) VHH: EVQLVESGGGQVQPGGSLRLSCESSVSIWSFKVMGWFRQVPGKQLELVATITTGGSPDYSDSVKGRFTISRDYDKRTLYLQMNSLKPEDTARYYCAGRLWAHITSSGHDVWGQGTQVTVSS | 0.26

Reference source: patent US20220242945A1
